# maps each entry to its melting point
assay_readout: melting point

INSERT INTO results (mol, observed) VALUES
  ('CC(=O)OCc1c(C(=O)C(=O)O)c2cc(-c3ccc(OC(F)(F)F)cc3)ccc2n1Cc1ccccc1', '85 to 86 °C'),
  ('CC(C)(C)c1ccc(Cn2cc(C(=O)C(=O)O)c3ccc(-c4ccc(C(F)(F)F)cc4)cc32)cc1', '205 to 206 °C (dec.)'),
  ('Cn1cc(C(=O)O)c2ccc(-c3ccc(C(F)(F)F)cc3)cc21', '237 to 239 °C (dec.)'),
  ('CCCCn1cc(C(=O)C(=O)O)c2cc(-c3cccc(Cl)c3)ccc21', '108 to 109 °C'),
  ('CCCCn1cc(C(=O)C(=O)O)c2cc(-c3cccc(OC)c3)ccc21', '108 to 109 °C'),
  ('CCCCn1cc(C(=O)C(=O)O)c2cc(-c3ccc(Cl)cc3)ccc21', '136 to 137 °C'),
  ('CC(C)(C)c1ccc(Cn2cc(C(=O)C(=O)O)c3cc(-c4cccc(Cl)c4)ccc32)cc1', '138 to 139 °C'),
  ('CCC(CC)Cn1cc(C(=O)C(=O)O)c2cc(-c3ccc(OC(F)(F)F)cc3)ccc21', '98 to 99 °C'),
  ('CCCCn1cc(C(=O)C(=O)O)c2cc(-c3ccc(C(F)(F)F)cc3)ccc21', '149 °C'),
  ('O=C(O)C(=O)c1cn(Cc2ccc(F)cc2)c2ccc(-c3ccc(OC(F)(F)F)cc3)cc12', '158 to 159 °C'),
  ('O=C(O)C(=O)c1cn(Cc2ccccc2)c2ccc(-c3ccccc3)cc12', '193 to 195 °C (dec.)'),
  ('O=C(O)c1cn(Cc2ccccc2)c2ccc(-c3ccc(F)c(Cl)c3)cc12', '189 to 194 °C');
